# System: MIN6B1 cell
# protocol: Assay for promoting activity on insulin secretion
# Format: cell-based, mouse
# test parameters: Mus musculus, 22 min, 10 μM test compound in KRB-HEPES with 16.8 mM glucose, 37° C., relative value, insulin concentration for only DMSO = 100%, read-out: Promotion activity on insulin secretion, %
Where a name gives a salt, the structure may show the parent alone.

{"columns": ["molecule", "unit tag", "activity at 10 µM"],
 "data": [
  ["C[C@@H]1CCCN(c2nc(-c3cc(F)c(Cl)cc3F)nc3c2CS(=O)(=O)C3)C1 [Example 1, hydrochloride]", "%", 355],
  ["NC(=O)CCN1CCN(c2nc(-c3cc(F)c(Cl)cc3F)nc3c2CS(=O)(=O)C3)CC1 [Example 269]", "%", 212],
  ["O=S1(=O)Cc2nc(-c3cc(F)c(Cl)cc3F)nc(N3CCC(NCCCO)CC3)c2C1 [Example 287]", "%", 208],
  ["O=C(O)CCNC1CCN(c2nc(-c3cc(F)c(Cl)cc3F)nc3c2CS(=O)(=O)C3)CC1 [Example 288]", "%", 253]
]}

These measurements were taken from patent US7947690B2.
